Setup Conditions: limosilactobacillus reuteri cf48-3a, 12 h, 2 µM
Description: The drug is tested on Lactobacillus reuteri CF48-3A strain: BEI HM-102 for biotransformation. The drug concentrations were measured before and after a 12-h incubation by liquid-chromatography-coupled mass spectrometry (LC–MS)
Readout Label: Bacterial Biotransformation

>>> result("Cc1cc2c(cc1S(N)(=O)=O)S(=O)(=O)CCC2")
"Compound NOT metabolized"
>>> result("CC(C)NCC(O)COc1ccc(CC(N)=O)cc1 (stereo unspecified)")
"Compound NOT metabolized"
>>> result("CCN(CC)CC#CCOC(=O)C(O)(c1ccccc1)C1CCCCC1.Cl (stereo unspecified) [OXYBUTYNIN CHLORIDE]")
"Compound NOT metabolized"
>>> result("CC[C@@H](CO)NC(=O)[C@@H]1C=C2c3cccc4c3c(cn4C)C[C@H]2N(C)C1.O=C(O)/C=C\\C(=O)O [METHYSERGIDE MALEATE]")
"Compound metabolized"
>>> result("NC(=O)N1c2ccccc2CC(=O)c2ccccc21 [OXCARBAZEPINE]")
"Compound metabolized"
>>> result("CC(=O)OCC(=O)NCCCOc1cccc(CN2CCCCC2)c1 [ROXATIDINE ACETATE]")
"Compound NOT metabolized"
>>> result("COc1ccc2[nH]c([S+]([O-])Cc3ncc(C)c(OC)c3C)nc2c1 (stereo unspecified)")
"Compound metabolized"
>>> result("Cc1cc2c(s1)Nc1ccccc1N=C2N1CCN(C)CC1")
"Compound NOT metabolized"
>>> result("CC(C)(C)NC[C@H](O)COc1ccccc1C1CCCC1.CC(C)(C)NC[C@H](O)COc1ccccc1C1CCCC1.O=S(=O)(O)O [PENBUTOLOL SULFATE]")
"Compound NOT metabolized"
>>> result("CC(C)(C)NC[C@H](O)COc1nsnc1N1CCOCC1.O=C(O)/C=C\\C(=O)O [TIMOLOL MALEATE]")
"Compound NOT metabolized"
>>> result("O=C(NCc1ccccc1)OCCO [BURAMATE]")
"Compound NOT metabolized"
>>> result("COc1ccc(/C=C/C(=O)Nc2ccccc2C(=O)O)cc1OC")
"Compound NOT metabolized"
>>> result("CNC(=C[N+](=O)[O-])NCCSCc1csc(CN(C)C)n1")
"Compound NOT metabolized"
>>> result("CCOc1ccc2nc(S(N)(=O)=O)sc2c1 [ETHOXZOLAMIDE]")
"Compound metabolized"
>>> result("COc1c(C)c2c(c(O)c1C/C=C(\\C)CCC(=O)OCCN1CCOCC1)C(=O)OC2 [MYCOPHENOLATE MOFETIL]")
"Compound metabolized"
>>> result("COc1cc2nc(N3CCN(C(=O)c4ccco4)CC3)nc(N)c2cc1OC")
"Compound NOT metabolized"
>>> result("COc1cc2c(c(OC)c1OC)-c1ccc(OC)c(=O)cc1[C@@H](NC(C)=O)CC2")
"Compound NOT metabolized"
>>> result("C=CCc1ccccc1OCC(O)CNC(C)C (stereo unspecified)")
"Compound NOT metabolized"
>>> result("CN1CCN(C(=O)O[C@H]2c3nccnc3C(=O)N2c2ccc(Cl)cn2)CC1")
"Compound NOT metabolized"
>>> result("CCN(C)C(=O)Oc1cccc([C@H](C)N(C)C)c1.O=C(O)C(O)C(O)C(=O)O [RIVASTIGMINE TARTRATE]")
"Compound NOT metabolized"
>>> result("NS(=O)(=O)c1cc2c(cc1Cl)N=C(CSCc1ccccc1)NS2(=O)=O [BENZTHIAZIDE]")
"Compound NOT metabolized"

These measurements were taken from ChEMBL document CHEMBL5303573.
